Values from the supplement of paper PMC4466140

- Test target: CaSla1-D1-D2
- Test method notes: SPOT peptide array binding signal intensity (averaged, normalized) (arbitrary units (background-subtracted, floor 0; scale differs between SH3 domains)); higher = stronger binding of the SH3 domain to the peptide
Measured quantity: SPOT peptide array binding signal intensity
One number for each entry.

# annotated cases, reported SPOT peptide array binding signal intensity shown
1. LFMKGTPEFPKSGFS ... 90
2. GRLRPKRIAPWHLIQ ... 143
3. LYEAMPPTLPHRDWK ... 25.5
4. RKNRAPPQRPRFNRE ... 752
5. KKIRLIFTYPSTVGR ... 21
6. KKAPPPVVKPKPRNF ... 3160
7. NRPAIRIPSLKKPAL ... 4.5
8. IVNKPLPPLPVAGSS ... 338

# return SPOT peptide array binding signal intensity for each item in the list
1. AERNYAPRLPRRETS
2. SSSSTPPTLPPRRIE

[19, 138]

# return SPOT peptide array binding signal intensity for each item in the list
1. TKFRISLGLPVGAIM
2. QPQRTAPKPPISAPR
3. KWVRRPKLMTPLTFS
4. NNNKMRPHLPPLSSG
5. YHSRRHPLALGFKYV
6. IHTRRPSSTSQYLIR
7. QRIRKIPGIPLMSVG

[126, 291, 623, 396, 124, 126, 817]
